Exercise: state measured inhibition at 0.1 ppm for each of the compounds provided.
Tested on: Gaeumannomyces graminis var. tritici (Ggt)
protocolDescription: In vitro Assay: mycelial growth of Ggt on minimal media agar plates containing test compound
Assay type: cell-based
experimentalConditions: Gaeumannomyces graminis; 0.1 ppm in minimal media agar; dark, 19-20° C., 4 to 5 days; diameter of mycelial growth; read-out: In vitro (ppm) 0.1, Percent Inhibition
Protocol: The test compounds (0.25 mL of an appropriate stock solution in acetone) are incorporated into 25 mL minimal media agar [(prepared by autoclaving a solution of 17.5 g Czapek Dox broth (Difco), 7.5 g purified agar or Bacto-agar (Difco), and 500 mL distilled/deionized water, and then adding 50 μL of 1 mg/mL thiamine hydrochloride and 50 μL of 1 mg/mL biotin in 5% ethanol] and plates are prepared. […]

Summary for this compound, `CCNC(=S)c1c(Cl)cccc1[Si](C)(C)C` : inhibition at 0.1 ppm is < 0%

I need inhibition at 0.1 ppm for every entry listed below, if you could help.
1. CCN(CC)C(=O)c1c(C)ccc(F)c1[Si](C)(C)C(C)(C)C
2. CC[C@@H](C)NC(=O)c1c(Cl)cccc1[Si](C)(C)C

Response:
1: < 0%; 2: < 0%

Cited source: patent US6410558B1
